# ASSAY TARGET: Serine/threonine-protein kinase MARK1 (Homo sapiens) (UniProt Q9P0L2)
# Sequence (Q9P0L2 whole entry, looked up): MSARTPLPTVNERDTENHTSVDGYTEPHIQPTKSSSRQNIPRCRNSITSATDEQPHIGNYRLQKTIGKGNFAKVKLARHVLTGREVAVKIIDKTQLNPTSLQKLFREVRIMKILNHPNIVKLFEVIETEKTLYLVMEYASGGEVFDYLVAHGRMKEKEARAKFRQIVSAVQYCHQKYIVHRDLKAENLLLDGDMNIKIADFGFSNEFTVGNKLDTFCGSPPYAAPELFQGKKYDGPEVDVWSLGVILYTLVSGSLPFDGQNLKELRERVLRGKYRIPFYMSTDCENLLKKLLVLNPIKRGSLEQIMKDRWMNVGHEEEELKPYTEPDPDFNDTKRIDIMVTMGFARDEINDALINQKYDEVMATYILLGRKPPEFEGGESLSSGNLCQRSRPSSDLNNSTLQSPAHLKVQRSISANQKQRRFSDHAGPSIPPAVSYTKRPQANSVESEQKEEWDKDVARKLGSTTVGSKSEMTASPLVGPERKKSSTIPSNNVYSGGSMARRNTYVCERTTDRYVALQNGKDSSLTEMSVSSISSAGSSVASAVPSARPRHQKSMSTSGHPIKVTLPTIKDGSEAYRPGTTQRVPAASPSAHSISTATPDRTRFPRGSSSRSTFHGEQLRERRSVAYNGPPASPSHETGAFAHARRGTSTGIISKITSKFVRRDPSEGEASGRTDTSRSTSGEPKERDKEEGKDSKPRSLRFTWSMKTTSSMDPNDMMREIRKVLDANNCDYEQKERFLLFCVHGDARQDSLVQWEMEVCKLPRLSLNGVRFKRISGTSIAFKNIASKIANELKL
# CONDITION NOTES: at 1 µM
EXPERIMENTAL READOUT: residual activity (%)
Hi! Could you send only the number? It should be in %, unit omitted.

Examples with their reported residual activity follow.
{"COMPOUND STRUCTURE": "COc1cc2nccc(Oc3ccc(NC(=O)Nc4cc(C)on4)c(Cl)c3)c2cc1OC", "residual activity, %": 99}
{"COMPOUND STRUCTURE": "O=S(=O)(NCCNC/C=C/c1ccc(Br)cc1)c1cccc2cnccc12", "residual activity, %": 76}
{"COMPOUND STRUCTURE": "O=C(Nc1nc2ccccc2n1CCN1CCOCC1)c1cccc([N+](=O)[O-])c1", "residual activity, %": 80}
{"COMPOUND STRUCTURE": "CCOC(=O)c1c(C)[nH]c(/C=C2\\C(=O)Nc3ccccc32)c1C", "residual activity, %": 89}
{"COMPOUND STRUCTURE": "NC(=O)Nc1sc(-c2ccc(F)cc2)cc1C(N)=O", "residual activity, %": 57}

Sample `O=C1NC(=O)C(c2c[nH]c3ccccc23)=C1c1c[nH]c2ccccc12` — what was its residual activity?
81

###

# ASSAY TARGET: Serine/threonine-protein kinase Sgk3 (Homo sapiens)
# CONDITION NOTES: at 10 µM
EXPERIMENTAL READOUT: residual activity (%)
Hi! Could you send only the number? It should be in %, unit omitted.

Examples with their reported residual activity follow.
{"COMPOUND": "CCCC(=O)Oc1ccc2[nH]c(C(=O)c3cc4ccccc4[nH]3)cc2c1", "ASSAY TARGET": "Serine/threonine-protein kinase Sgk3 (Homo sapiens)", "residual activity, %": 85}
{"COMPOUND": "O=c1cc(N2CCOCC2)oc2c(-c3ccccc3)cccc12", "ASSAY TARGET": "Serine/threonine-protein kinase Sgk3 (Homo sapiens)", "residual activity, %": 74}
{"COMPOUND": "O=C1Cc2c([nH]c3ccc(Br)cc23)-c2ccccc2N1", "ASSAY TARGET": "Serine/threonine-protein kinase Sgk3 (Homo sapiens)", "residual activity, %": 83}

Sample `CN([C@@H](Cc1ccc(OS(=O)(=O)c2cccc3cnccc23)cc1)C(=O)N1CCN(c2ccccc2)CC1)S(=O)(=O)c1cccc2cnccc12` — what was its residual activity?
83

Sample `NC(=O)Nc1sc(-c2ccc(F)cc2)cc1C(N)=O` — what was its residual activity?
85

Sample `CC(C)[C@H](CO)Nc1nc(Nc2cc(N)cc(Cl)c2)c2ncn(C(C)C)c2n1` — what was its residual activity?
92

Sample `CC(C)N(CCC(=O)c1ccc2ccccc2c1)Cc1ccccc1` — what was its residual activity?
85

Sample `O=C1C(Cl)=C(N2C(=O)CCC2=O)C(=O)c2ccccc21` — what was its residual activity?
82

Sample `Nc1nc(Nc2ccc(S(N)(=O)=O)cc2)nn1C(=O)c1c(F)cccc1F` — what was its residual activity?
79

Sample `CCN(CC)CCNC(=O)c1c(C)[nH]c(/C=C2\C(=O)Nc3ccc(Cl)cc32)c1C` — what was its residual activity?
73

Sample `CCN1/C(=C/C(C)=O)Sc2ccc(OC)cc21` — what was its residual activity?
65

Sample `O=C1Nc2ccccc2/C1=C\c1c(Cl)[nH]c2ccccc12` — what was its residual activity?
79

Sample `Nc1ncnc2[nH]nc(Nc3ccc(F)cc3)c12` — what was its residual activity?
80
